# credit: ChEMBL document CHEMBL5543140

- Experiment Summary: Metabolic stability of the compound assessed as recombinant human MAO-mediated oxidative metabolism by measuring compound remaining measured upto 120 mins by LC-MS/MS analysis
- Type: ADME
- Recorded Conditions: 2 h
Reported Property: Stability

{"columns": ["Smiles Input", "Stability"],
 "data": [
  ["Cl.[2H]C([2H])([2H])Oc1cc(C2CCCC2)c(OC([2H])([2H])[2H])cc1CCN", "Stable"],
  ["Cl.[2H]C([2H])([2H])Oc1cc(C(F)(F)F)c(OC([2H])([2H])[2H])cc1CCN", "Stable"],
  ["Cl.[2H]C([2H])(N)Cc1cc(OC)c(SC)cc1OC", "Stable"],
  ["COc1cc(C[C@H](C)N)c(O)cc1SC.Cl", "Stable"],
  ["Cl.[2H]C([2H])([2H])Oc1cc(SC)c(OC([2H])([2H])[2H])cc1CCN", "Stable"]
]}

Exercise: Return the recorded Stability value; entry: `Cl.[2H]C([2H])([2H])Oc1cc(SC)c(OC([2H])([2H])[2H])cc1C[C@H](C)N`
Solution: Stable

Exercise: Hello, please tell me recorded Stability for this one: `Cl.[2H]C([2H])([2H])Oc1cc(C(C)(C)C)c(OC([2H])([2H])[2H])cc1CCN`
Solution: Stable

Exercise: Report measured Stability; entry is `Cl.[2H]C([2H])([2H])C(c1cc(OC)c(CCN)cc1OC)(C([2H])([2H])[2H])C([2H])([2H])[2H]`
Solution: Stable

Exercise: Hello, please tell me recorded Stability for this one: `Cl.[2H]C([2H])([2H])Oc1cc(SC)c(OC([2H])([2H])[2H])cc1C[C@@H](C)N`
Solution: Stable

Exercise: Please report the measured Stability for `COc1cc(SC)c(OC)cc1C[C@@H](C)N.Cl`
Solution: Stable

Exercise: Respond only with Stability recorded for `Cl.[2H]C([2H])(N)Cc1cc(OC)c(C(F)(F)F)cc1OC`
Solution: Stable
